Entries and their Kd
target: Recombinant human his-tagged IGF R extracellular domain protein (human) (UniProt P08069); assay: SPR, Ab captured via anti-huIgG Fc, dissociation at pH 6
Answer with a number only, understood to be in nM.

VRDN-02011 (antibody, V domains shown) VH: QVQLQESGPGLVKPSETLSLTCTVSGYSITGGYLWHWIRQPPGKGLEWIGYISYDGTNNYKPSLKDRVTISRDTSKNQFSLKLSSVTAADTAVYYCARYGRVFFDYWGQGTLVTVSS VL: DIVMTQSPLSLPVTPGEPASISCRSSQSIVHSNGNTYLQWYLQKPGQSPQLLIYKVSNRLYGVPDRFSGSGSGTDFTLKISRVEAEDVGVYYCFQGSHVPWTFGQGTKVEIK | 0.836

// next entry
Hello, please tell me recorded Kd for this one: VRDN-02061 (antibody, V domains shown) VH: QVQLQESGPGLVKPSETLSLTCTVSGYSITGGYLWNWIRQPPGKGLEWIGYISYDGTNNYKPSLKDRVTISRDTSKNQFSLKLSSVTAADTAVYYCARHGRVFFDYWGQGTLVTVSS VL: DIVMTQSPLSLPVTPGEPASISCRSHQSIVHSNGNTYLQWYLQKPGQSPQLLIYKVSNRLYGVPDRFSGSGSGTDFTLKISRVEAEDVGVYYCFQGSHVPWTFGQGTKVEIK
0.299
